target of assay: Lysine--tRNA ligase (Plasmodium falciparum (isolate 3D7)) (UniProt Q8IDJ8)
Sequence (Q8IDJ8 1-583): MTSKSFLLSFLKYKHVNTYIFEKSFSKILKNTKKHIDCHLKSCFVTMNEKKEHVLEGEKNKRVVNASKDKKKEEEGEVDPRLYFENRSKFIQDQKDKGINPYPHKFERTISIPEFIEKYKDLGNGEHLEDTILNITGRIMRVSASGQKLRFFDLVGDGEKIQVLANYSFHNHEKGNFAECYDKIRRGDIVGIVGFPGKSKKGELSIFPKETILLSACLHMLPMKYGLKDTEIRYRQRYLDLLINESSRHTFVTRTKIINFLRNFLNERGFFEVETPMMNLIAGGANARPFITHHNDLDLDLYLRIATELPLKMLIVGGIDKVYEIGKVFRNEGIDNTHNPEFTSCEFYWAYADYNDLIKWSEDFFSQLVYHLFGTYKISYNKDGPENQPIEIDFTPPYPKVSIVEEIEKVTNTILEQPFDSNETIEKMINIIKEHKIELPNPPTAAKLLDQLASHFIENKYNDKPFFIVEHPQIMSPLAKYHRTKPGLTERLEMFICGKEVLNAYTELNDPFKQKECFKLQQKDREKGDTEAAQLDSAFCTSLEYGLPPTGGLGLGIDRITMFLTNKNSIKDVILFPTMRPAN
assay details: Pf-KRS-1 (Lysyl-RNA Synthetase-1, KRS-1, cytosolic KRS) from Plasmodium falciparum. Inhibitor assay, 384 well plate, luminescence read.
Assay type: functional
Parameters: scale not given: in the data most compounds retested in dose-response had high values
measurement parameters: 30 µM
Hit rate of the full screen: of about 69,000 compounds, about 50 (0.07%) showed an effect of 50% or more. This is one part of a sample in which strong results are shown more often than they occur.
Quick reference for Percent Effect among some molecules

# molecule, Percent Effect
records = [
    ("CCCN(C(=O)c1cnccn1)c1nc2c(s1)CCc1c-2cnn1C", "10.8%"),
    ("COCc1nc2cc(NCc3sc(C)nc3C)ccc2o1", "58.6%"),
    ("COCCN1C(=O)[C@H]2CC[C@@H]1CN(S(=O)(=O)c1ccc(OC)cc1)C2", "5.86%"),
    ("c1cnc(N2CC[C@@H]3CN(Cc4ccncc4)CCO[C@@H]3C2)nc1", "4.97%"),
    ("Cn1cc(NC(=O)N2CCC(c3ccccc3)CC2)ccc1=O", "45.4%"),
    ("Cn1cc(NC(=O)N2CCCC2c2cccnc2)ccc1=O (stereo unspecified)", "4.14%"),
    ("COCc1nc2cc(NCc3csc(C)n3)ccc2o1", "10.7%"),
    ("O=C(c1cocn1)N1C[C@H]2CCC[C@@]2(COCc2cccnc2)C1", "2.44%"),
    ("COc1ccc(CC(=O)N2CC[C@@H]3CN(C)S(=O)(=O)[C@@H]3CC2)cc1", "3.63%"),
    ("Cc1cc(=O)n(C)cc1NC(=O)Cc1cccc(F)c1", "19.8%"),
    ("COC(=O)c1ccc(CNC(=O)Nc2ccc(=O)n(C)c2)cc1", "-0.542%"),
    ("COc1ccccc1C1CC(=O)Nc2nc(N3CCCCC3)sc21 (stereo unspecified)", "84.3%"),
    ("Cc1cc(=O)n(C)cc1NC(=O)Cc1ccc(C(F)(F)F)cc1", "1.6%"),
    ("O=C([C@H]1CN(Cc2cccnc2)C[C@H]2OCC[C@@H]12)N1CCCO1", "2.79%"),
    ("COCCN(C(=O)c1ccccn1)c1nc2c(s1)CCc1c-2cnn1C", "52.4%"),
    ("O=C(NCc1ccoc1)Nc1ccc(CN2CCOC2=O)cc1", "2.38%"),
    ("COc1ccc(OC)c(C2SCC(=O)Nc3n[nH]cc32)c1 (stereo unspecified)", "4.67%"),
    ("COc1ccc(CNC(=O)Nc2ccc(=O)n(C)c2)cc1", "77.6%"),
    ("CCCN(C(=O)c1ccccn1)c1nc2c(s1)CCc1c-2cnn1C", "50.4%"),
    ("CN(C)C(=O)N1C[C@@H]2CC[C@H](C1)N(Cc1nnc(C3CC3)o1)C2", "1.65%"),
    ("COCC(=O)N1CC[C@H]2[C@H]1CCN2CC(C)C", "7.19%"),
    ("Cn1cc(NC(=O)N2CCCC2c2ccccn2)ccc1=O (stereo unspecified)", "78.9%"),
    ("Cn1cc(NC(=O)NCc2ccoc2)ccc1=O", "58.5%"),
    ("CCCN(C(=O)c1cnc(C)cn1)c1nc2c(s1)CCc1c-2cnn1C", "40.4%"),
    ("CCCN(C(=O)COC)c1nc2c(s1)CCc1c-2cnn1C", "74.8%"),
    ("Cn1cc(NC(=O)NCc2ccsc2)ccc1=O", "73.2%"),
    ("CN(Cc1ccsc1)C(=O)Nc1ccc(=O)n(C)c1", "28.4%"),
    ("COc1ccc(CNC(=O)Nc2ccc(CN3CCOC3=O)cc2)cc1", "0.788%"),
    ("c1coc(-c2nc3c(c(N4CCCN5CCC[C@H]5C4)n2)CCNCC3)c1", "0.644%"),
    ("CNC(=O)[C@@H]1COC[C@H]2CN(C(=O)COc3ccccc3)C[C@H]21", "5.31%"),
    ("COCCN(C(=O)c1cnccn1)c1nc2c(s1)CCc1c-2cnn1C", "8.73%"),
    ("CCCN(C(=O)c1ccncc1)c1nc2c(s1)CCc1c-2cnn1C", "16.2%"),
    ("O=C1C[C@H]2[C@@H](CCN2C(=O)Cc2cccs2)N1Cc1ccncc1", "3.5%"),
    ("O=C([C@@H]1CCO[C@@H]2CCN(Cc3ccc(F)cc3)C[C@H]21)N1CCCCO1", "4.98%"),
    ("Cc1ccoc1C(=O)N1CC[C@H]2OCC[C@@]2(COCc2ccncc2)C1", "6.75%"),
    ("COc1ccccc1C1CC(=O)Nc2c1c(=O)[nH]n2C1CCCC1 (stereo unspecified)", "5.39%"),
    ("Cc1ncsc1CN1C[C@H]2OCC[C@H]2[C@H](C(=O)NCC2CC2)C1", "0.98%"),
    ("CCCN1CCN(C(=O)c2cc3ccccc3cn2)[C@H]2CS(=O)(=O)C[C@H]21", "4.93%"),
    ("c1cnc2c(-c3nccn3C[C@@H]3CCCN4CCCC[C@H]34)cccc2c1", "1.5%"),
    ("COC(=O)c1ccc2ccn(CC3CCCO3)c(=O)c2c1 (stereo unspecified)", "12.9%"),
    ("Cn1cc(NC(=O)N2CCC(CN3CCCC3)CC2)ccc1=O", "0.985%"),
    ("COc1ccccc1C1CC(=O)Nc2c1c(=O)[nH]n2C(C)C (stereo unspecified)", "-1.35%"),
    ("Cn1cc(NC(=O)CCc2ccsc2)ccc1=O", "7.87%"),
    ("Cc1nccc([C@H]2C[C@@H]3CCN(S(C)(=O)=O)C[C@H]3O2)n1", "-0.787%"),
    ("Cn1cc(NC(=O)N2CCC2c2ccccc2)ccc1=O (stereo unspecified)", "20.1%"),
    ("Cc1cc(=O)n(C)cc1NC(=O)Cc1cc(F)ccc1F", "69.1%"),
]

----------
target of assay: Lysine--tRNA ligase (Plasmodium falciparum (isolate 3D7))
assay details: Pf-KRS-1 (Lysyl-RNA Synthetase-1, KRS-1, cytosolic KRS) from Plasmodium falciparum. Inhibitor assay, 384 well plate, luminescence read.
Type: functional
Design: scale not given: in the data most compounds retested in dose-response had high values
measurement parameters: 30 µM
The campaign covered roughly 69,000 compounds. About 50 (0.07%) showed an effect of 50% or more. This is one part of a sample in which strong results are shown more often than they occur.
Use MET when the recorded Percent Effect is no lower than 30%; use NOT MET when it is lower.

# molecule, assigned class
measured = [
    ("CC(C)(C)n1ncc2c1NC(=O)CC2c1c(F)cccc1F (stereo unspecified)", "NOT MET"),
    ("CNc1nc2c(s1)C(c1cc(Cl)ccc1F)CC(=O)N2 (stereo unspecified)", "MET"),
    ("Cn1ncc2c1NC(=O)CC2c1ccc(Cl)cc1Cl (stereo unspecified)", "NOT MET"),
    ("CNC(=O)[C@@H]1C[C@H]2CN(Cc3csc(C)n3)C[C@H]2N1C(C)C", "NOT MET"),
    ("COC[C@@]12CC[C@@H](N3CCOCC3)C[C@H]1CCN(c1nc(CO)cs1)C2", "NOT MET"),
    ("CNc1nc2c(s1)C(c1ccc(F)cc1Cl)CC(=O)N2 (stereo unspecified)", "MET"),
    ("CNc1nc2c(s1)C(c1ccc(Cl)cc1Cl)CC(=O)N2 (stereo unspecified)", "MET"),
    ("CS(=O)(=O)N1C[C@@H]2COC[C@@H](CC(=O)N3CCCCO3)[C@@H]2C1", "NOT MET"),
    ("Cn1ncc2c1NC(=O)CC2c1ccccc1Cl (stereo unspecified)", "NOT MET"),
    ("CNc1nc2c(s1)C(c1ccccc1Cl)CC(=O)N2 (stereo unspecified)", "MET"),
]

----------
target of assay: Lysine--tRNA ligase (Plasmodium falciparum (isolate 3D7)) (UniProt Q8IDJ8)
assay details: Pf-KRS-1 (Lysyl-RNA Synthetase-1, KRS-1, cytosolic KRS) from Plasmodium falciparum. Inhibitor assay, 384 well plate, luminescence read.
Assay type: functional
Design: scale not given: in the data most compounds retested in dose-response had high values
measurement parameters: 30 µM
About 50 (0.07%) of roughly 69,000 compounds showed an effect of 50% or more. The list comes from a sample in which strong results are over-represented; it also holds close analogues and randomly drawn compounds.

# molecule, target of assay, unit info, Percent Effect
measured = [
    ("COCC(=O)N1C[C@H]2CCC[C@@]2(COC)C1", "Lysine--tRNA ligase (Plasmodium falciparum (isolate 3D7)) (UniProt Q8IDJ8)", "%", 3.43),
    ("Cn1ncc2c1NC(=O)CC2c1ccccc1Br (stereo unspecified)", "Lysine--tRNA ligase (Plasmodium falciparum (isolate 3D7)) (UniProt Q8IDJ8)", "%", 1.2),
    ("Cc1cccc(CN2C[C@H](NS(C)(=O)=O)[C@@H]3OCCC[C@@H]32)n1", "Lysine--tRNA ligase (Plasmodium falciparum (isolate 3D7)) (UniProt Q8IDJ8)", "%", 0.332),
    ("Cc1cc(Br)c(O)c(-c2nc(N3CCOCC3)sc2C)c1", "Lysine--tRNA ligase (Plasmodium falciparum (isolate 3D7)) (UniProt Q8IDJ8)", "%", 2.13),
    ("OC1CN(c2nc3c(C(F)(F)F)cccc3s2)C1", "Lysine--tRNA ligase (Plasmodium falciparum (isolate 3D7)) (UniProt Q8IDJ8)", "%", -2.21),
    ("CCO[C@@H]1CN(S(=O)(=O)c2cn(C)cn2)[C@@H]2CCCO[C@@H]21", "Lysine--tRNA ligase (Plasmodium falciparum (isolate 3D7)) (UniProt Q8IDJ8)", "%", 3.16),
    ("O=C(NCC1CC1)[C@@H]1CC[C@@H]2[C@@H](CCN2Cc2ccco2)O1", "Lysine--tRNA ligase (Plasmodium falciparum (isolate 3D7)) (UniProt Q8IDJ8)", "%", -0.532),
    ("O=C1CC[C@]2(CC[C@@H](NCc3ccc4c(c3)OCO4)CC2)N1", "Lysine--tRNA ligase (Plasmodium falciparum (isolate 3D7)) (UniProt Q8IDJ8)", "%", -2.96),
    ("O=C(N1CCCC1)N1C[C@H]2CCC[C@@]2(COCc2ccccn2)C1", "Lysine--tRNA ligase (Plasmodium falciparum (isolate 3D7)) (UniProt Q8IDJ8)", "%", 2.76),
    ("O=c1[nH]nc(-c2cccs2)c2sc(N3CCOCC3)nc12", "Lysine--tRNA ligase (Plasmodium falciparum (isolate 3D7)) (UniProt Q8IDJ8)", "%", 7.56),
    ("Cn1nc2c(cc1=O)CN(CC1CCCCO1)CC2 (stereo unspecified)", "Lysine--tRNA ligase (Plasmodium falciparum (isolate 3D7)) (UniProt Q8IDJ8)", "%", 50.5),
]
